- Target of assay: T1, HLA-A*02:01 (human)
- T1 construct: MHC monomers first loaded with a UV-sensitive peptide (not identified) that is cleaved by UV light and exchanged for the test peptide; captured on streptavidin plates, detected with anti-β2m; also called peptide-receptive MHC molecules; MHC class I
- Assay remarks: UV-ligand exchange + anti-b2m ELISA; peptide exchange yield grade (+ >=10%, ++ >=20%, +++ >=50, ++++ >=75%)
Listed here: items and their measured peptide exchange yield.

Binder	peptide exchange yield
FIADLVVGL (source genes ENO1, ENO2, ENO3) [FIADLVVGL (SEQ ID NO: 28)]	20 to 50%
VLAGPAFLVQL (source gene SLC47A1) [VLAGPAFLVQL (SEQ ID NO: 62)]	50 to 75%
FTLEKNFVI (source gene COL6A2) [FTLEKNFVI (SEQ ID NO: 90)]	20 to 50%
LLDPGSLQL (source gene SYNDIG1L) [LLDPGSLQL (SEQ ID NO: 19)]	20 to 50%
LLAASVALA (source gene NPTX2) [LLAASVALA (SEQ ID NO: 64)]	20 to 50%

Data origin, for the record: patent US20160287687A1
